# protocol-notes: qHTS assay for identifying genotoxic compounds that show differential cytotoxicity against isogenic chicken DT40 cell lines with known DNA damage response pathways - Rev3 mutant cell line (AID 743014); also: nearly all actives have a fitted effect of over 55% in size; also: potency is read from the fitted curve at half-maximal effect
# test-context: chicken DT40 Rev3-/- viability, CellTiter-Glo, 40 h; series mostly up to 68.4 µM
Records with an inconclusive call do not appear. Activity calls are given as the source filed them. Calls follow the shape of the dose curve; as a rule, active = well fitted cell-killing curve with a large enough effect in the repeat runs; inconclusive = weak or mixed curves, or effect the other way; inactive = no such curve, though single readings can be large or run the other way.
endpoint: Potency

Would you please look over these solved cases?
compound=O=C(O)c1ccccc1[N+](=O)[O-] recorded_measurement=inactive
compound="CCC(C)CCCC(C)(C)O (centres undefined)" recorded_measurement=inactive
compound=CC(C)(C)c1ccc(CCC=O)cc1 recorded_measurement=inactive
compound=CCCCOc1ccc(N)cc1 recorded_measurement=inactive
compound=O=C1c2ccccc2C(=O)C1c1ccc2ccccc2n1 recorded_measurement=inactive
compound=Cc1ccc(NC(=O)c2ccc(CN3CCN(C)CC3)cc2)cc1Nc1nccc(-c2cccnc2)n1 recorded_measurement="11.9 µM (active)"
compound="C=CC(C)CCC=C(C)C (centres undefined)" recorded_measurement=inactive
compound="CCCCCC1CCC(=O)O1 (centres undefined)" recorded_measurement=inactive

Q: Bench note: what Potency did Cc1cccc(C)c1NC(=O)CN1CCCC1 show?
Ans: inactive

Q: Which Potency is listed for O=[N+]([O-])c1ccccc1CCO ?
Ans: inactive

Q: What does the data say about its Potency? Entry: O=P(c1ccccc1)(c1ccccc1)c1ccccc1
Ans: 61.1 µM (active)

Q: Any idea what its Potency is? The compound is C/C=C1\[C@H]2C=C(C)C[C@]1(N)c1ccc(=O)[nH]c1C2
Ans: inactive

Q: Need Potency, item CC/C=C\CCO
Ans: inactive

Q: Would you kindly share the measured Potency for OCCc1ccncc1 ?
Ans: inactive

These measurements were taken from PubChem BioAssay (Tox21).
